Would you kindly list pKi for each of these compounds?
Biological target: CCR3 receptor (UniProt P51677)
Sequence (P51677 1-355): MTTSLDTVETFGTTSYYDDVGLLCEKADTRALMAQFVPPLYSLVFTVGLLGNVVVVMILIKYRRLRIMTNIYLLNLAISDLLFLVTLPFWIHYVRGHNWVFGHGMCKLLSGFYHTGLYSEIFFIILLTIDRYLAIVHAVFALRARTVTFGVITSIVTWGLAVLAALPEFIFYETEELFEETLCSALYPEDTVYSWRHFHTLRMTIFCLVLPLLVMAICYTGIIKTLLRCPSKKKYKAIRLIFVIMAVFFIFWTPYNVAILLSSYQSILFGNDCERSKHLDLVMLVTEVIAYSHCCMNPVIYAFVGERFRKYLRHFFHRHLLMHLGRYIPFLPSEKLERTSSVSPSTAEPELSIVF
pKi: −log10 of the molar value.

The compound listed as N#Cc1ccc(Oc2cc(Cl)cc(Cl)c2)c(S(=O)(=O)NC2CCN(C(=O)Nc3cccc(F)c3)CC2)c1 [Compound 44] shows pKi equal to 6.30 to 7.30

The compound listed as N#Cc1ccc(Oc2cc(Cl)cc(Cl)c2)c(S(=O)(=O)N2CCC(NC(=O)NCCN3CCSCC3)CC2)c1 [Compound 47] shows pKi equal to ≥ 7.30

The compound listed as N#Cc1ccc(Oc2cc(Cl)cc(Cl)c2)c(S(=O)(=O)N2CCC(NS(=O)(=O)c3cccc(F)c3)CC2)c1 [Compound 25] shows pKi equal to 6.30 to 7.30

The compound listed as CC(C)C(=O)N1CCC(NS(=O)(=O)c2cc(C#N)ccc2Oc2cc(Cl)cc(Cl)c2)CC1 [Compound 39] shows pKi equal to < 5.30
